Provenance of the data: paper PMC12507699

# subject.of.test: SLC45A4 (Homo sapiens, UniProt Q5BKX6)
# Sequence (Q5BKX6 whole entry): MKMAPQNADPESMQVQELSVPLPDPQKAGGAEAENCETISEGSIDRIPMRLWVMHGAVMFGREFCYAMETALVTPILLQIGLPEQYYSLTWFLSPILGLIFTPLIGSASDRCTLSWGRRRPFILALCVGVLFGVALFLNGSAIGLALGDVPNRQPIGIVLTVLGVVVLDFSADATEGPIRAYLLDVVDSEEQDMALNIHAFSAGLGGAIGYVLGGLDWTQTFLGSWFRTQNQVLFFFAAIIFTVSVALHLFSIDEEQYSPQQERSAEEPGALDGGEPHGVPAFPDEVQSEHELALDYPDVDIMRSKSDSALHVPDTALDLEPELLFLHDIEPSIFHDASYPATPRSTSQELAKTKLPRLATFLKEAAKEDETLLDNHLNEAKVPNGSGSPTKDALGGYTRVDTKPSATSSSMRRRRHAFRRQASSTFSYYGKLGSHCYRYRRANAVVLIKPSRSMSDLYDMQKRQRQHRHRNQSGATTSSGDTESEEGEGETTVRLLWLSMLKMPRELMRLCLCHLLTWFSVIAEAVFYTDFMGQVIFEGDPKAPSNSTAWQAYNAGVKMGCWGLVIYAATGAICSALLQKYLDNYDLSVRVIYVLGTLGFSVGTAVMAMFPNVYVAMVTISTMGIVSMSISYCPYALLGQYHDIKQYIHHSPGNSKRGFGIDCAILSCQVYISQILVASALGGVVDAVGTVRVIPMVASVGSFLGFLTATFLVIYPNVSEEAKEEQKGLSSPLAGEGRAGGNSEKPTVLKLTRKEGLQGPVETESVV
# measurement.protocol: […]-SPD uptake and homologous competition in Neuro-2A cells overexpressing SLC45A4; also nanoDSF destabilization of purified protein in detergent and nanodiscs
# Format: cell-based
# Design: full-length human SLC45A4
measure.name: IC50 (µM)
Kindly answer with a numeric value in µM, unit omitted.

stdin: Need IC50 of NCCCCNCCCN [SPD, spermidine] , thanks.
stdout: 123

====

# subject.of.test: SLC45A4 (Homo sapiens)
# measurement.protocol: cell-based
measure.name: IC50

stdin: Need IC50 of NCCCNCCCCNCCCN [Spm, spermine] , thanks.
stdout: 240 µM
